Test: self-splicing fitness, log relative to wild type (ln ratio); higher = more splicing; Tetrahymena group I intron in knt gene, E. coli kanamycin selection, DiMSum; sequences stand for … in CUCUCU…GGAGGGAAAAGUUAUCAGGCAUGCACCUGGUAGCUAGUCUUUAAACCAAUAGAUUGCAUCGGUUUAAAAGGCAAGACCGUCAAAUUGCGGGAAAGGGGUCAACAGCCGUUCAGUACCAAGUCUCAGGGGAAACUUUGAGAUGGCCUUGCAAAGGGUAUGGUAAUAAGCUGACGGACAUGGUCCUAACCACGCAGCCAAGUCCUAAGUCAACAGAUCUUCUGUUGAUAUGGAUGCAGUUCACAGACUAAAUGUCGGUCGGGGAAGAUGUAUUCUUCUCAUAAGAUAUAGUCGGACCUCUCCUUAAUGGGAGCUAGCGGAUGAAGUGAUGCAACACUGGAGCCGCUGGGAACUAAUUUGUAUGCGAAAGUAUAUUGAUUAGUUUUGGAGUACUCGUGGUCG;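 also: selection with 25 µg/mL kanamycin versus none on LB agar overnight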
Conditions: 37 °C
endpoint-label: self-splicing fitness (ln)

AGCUAGCAAUAUUACGAGCA | 0.177
UCGCAGCAAUAUUACGAAAG | -2.04
GUCCAGCAAUAUUACGGACA | -1.67
AGGCAGCAAUAUUACGCCCA | -0.205
AGCAAGCAAUAUUACGUUGG | -3.18
AAAGAGCAAUAUUACGCAGC | -2.77
UCACAGCAAUAUUACGCGGU | -2.63
UUAUAGCAAUAUUACGGAUU | -2.02
GCAAAGCAAUAUUACGCACG | -0.806
CCCUAGCAAUAUUACGGGUU | -2.39
UUAAAGCAAUAUUACGACGG | 0.75
CAAGAGCAAUAUUACGUGGC | -3.41
UGGAAGCAAUAUUACGUCCC | 0.402
CGGUAGCAAUAUUACGUUAC | -2.09
AGAGAGCAAUAUUACGUGGG | -2.71
CUAUAGCAAUAUUACGAGGU | -3.28
GCCGAGCAAUAUUACGUGAA | -0.417
GAGCAGCAAUAUUACGUACU | -0.502
CGCUAGCAAUAUUACGCGAG | -2.56
GGGAAGCAAUAUUACGGACU | -0.24
ACGUAGCAAUAUUACGGGGA | -1.83
CAGAAGCAAUAUUACGGGUU | -3.23
CCAGAGCAAUAUUACGGAAA | -2.19
AUUGAGCAAUAUUACGGUUU | -2.16
AUCAAGCAAUAUUACGUGCC | -0.426
GGCUAGCAAUAUUACGUAAC | -0.442
AUCGAGCAAUAUUACGUUGU | -3.62
GUGAAGCAAUAUUACGGUGC | -0.977
AGCUAGCAAUAUUACGUUAA | -1.36
AAUCAGCAAUAUUACGCGCA | -0.264
UUACAGCAAUAUUACGCAAA | -0.688
GUUUAGCAAUAUUACGAAUC | -0.202
GGGUAGCAAUAUUACGAAGU | -1.57
GAUUAGCAAUAUUACGAGUU | -0.583
GAUGAGCAAUAUUACGUACG | -1.55
AAAGAGCAAUAUUACGCGUC | -2.6
ACCAAGCAAUAUUACGUUCA | -1.18
CUUCAGCAAUAUUACGGGGG | -2.23
AGUGAGCAAUAUUACGGCUC | -2.03
UAUGAGCAAUAUUACGACGG | -1.83
GGUCAGCAAUAUUACGUGCA | 0.539
AGUAAGCAAUAUUACGCCAU | -1.93
UCGGAGCAAUAUUACGCGGA | 0.916
GGCAAGCAAUAUUACGUGCU | -2.99
UCCCAGCAAUAUUACGGUUG | -1.79
CCUCAGCAAUAUUACGGCUG | -2.36
CGACAGCAAUAUUACGAGCU | -2.17
CUACAGCAAUAUUACGCAUC | -1.5
CUGUAGCAAUAUUACGUUAA | -1.49
GAUAAGCAAUAUUACGUUCU | -2.58
GGUUAGCAAUAUUACGUGCU | -2.35
ACAUAGCAAUAUUACGGCGC | -0.521
AUGUAGCAAUAUUACGCAGC | -0.433
UCGAAGCAAUAUUACGAUCU | -2.44
CCCCAGCAAUAUUACGAGAC | -2.37

###

Test: self-splicing fitness, log relative to wild type (ln ratio); higher = more splicing; Tetrahymena group I intron in knt gene, E. coli kanamycin selection, DiMSum; sequences stand for … in CUCUCU…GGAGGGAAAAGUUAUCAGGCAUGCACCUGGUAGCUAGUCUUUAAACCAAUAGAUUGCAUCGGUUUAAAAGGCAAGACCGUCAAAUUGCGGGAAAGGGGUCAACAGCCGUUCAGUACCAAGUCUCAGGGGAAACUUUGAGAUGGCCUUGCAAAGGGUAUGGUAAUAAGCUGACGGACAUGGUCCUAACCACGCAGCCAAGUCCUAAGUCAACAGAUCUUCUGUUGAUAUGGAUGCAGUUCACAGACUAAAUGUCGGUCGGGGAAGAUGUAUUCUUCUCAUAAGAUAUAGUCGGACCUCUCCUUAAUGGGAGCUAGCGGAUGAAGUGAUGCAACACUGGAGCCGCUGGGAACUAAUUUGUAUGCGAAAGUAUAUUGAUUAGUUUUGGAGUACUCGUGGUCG
Details: 30 °C
// reported self-splicing fitness (ln) per item
endpoint-label: self-splicing fitness (ln)

GGUUAGCAAUAUUACGUCCA | -1.17
CGGCAGCAAUAUUACGUUAA | -2.44
UGGGAGCAAUAUUACGUCCA | -2.03
UAGCAGCAAUAUUACGGCCU | -0.225
AUGGAGCAAUAUUACGAAUG | -3.6
UUUUAGCAAUAUUACGGUGG | -1.24
CAUGAGCAAUAUUACGUCCU | -4.2
CUGAAGCAAUAUUACGGGCA | -3.04
UAGAAGCAAUAUUACGCAGA | -3.4
AAACAGCAAUAUUACGUUCC | -2.55
GAAGAGCAAUAUUACGACGU | -0.922
AGCGAGCAAUAUUACGUGAU | -2.98
AUCAAGCAAUAUUACGCCCG | -0.965
AGAUAGCAAUAUUACGUAUC | -2.64
UACAAGCAAUAUUACGCUGA | -2.32
AGGAAGCAAUAUUACGAAAC | -2.83
UACGAGCAAUAUUACGCAGG | -2.88
CAUGAGCAAUAUUACGGGGU | -3.25
UCACAGCAAUAUUACGCCCG | -0.978
CUUGAGCAAUAUUACGAUAG | -2.67
GAACAGCAAUAUUACGAGCU | -1.99
ACCCAGCAAUAUUACGGAUA | -0.912
UCGCAGCAAUAUUACGCUCU | -3.55
CCAAAGCAAUAUUACGGCCU | -3.59
UGCCAGCAAUAUUACGUUGC | -2.93
CCUCAGCAAUAUUACGUAGU | -2.16
UAAGAGCAAUAUUACGGUUU | -3.48
UGAUAGCAAUAUUACGCGCG | -0.57
CAUAAGCAAUAUUACGUGUC | -3.62
CAUAAGCAAUAUUACGCGCG | -0.536
GAACAGCAAUAUUACGCUAU | -2.43
AACAAGCAAUAUUACGUUCA | -1.41
CGUUAGCAAUAUUACGCAAG | -1.97
CGUAAGCAAUAUUACGGACA | -0.986
UAAGAGCAAUAUUACGCUCA | -2.37
UGCCAGCAAUAUUACGGCUA | 0.121
GGGCAGCAAUAUUACGCCGC | -3.33
GUGUAGCAAUAUUACGGACA | -0.685
UACCAGCAAUAUUACGUCAU | -2.21
UUCGAGCAAUAUUACGAGCA | -1.41
AUCCAGCAAUAUUACGAAUG | -1.94
GACCAGCAAUAUUACGUGGC | -4.25

###

Assay: self-splicing fitness, log relative to wild type (ln ratio); higher = more splicing; Tetrahymena group I intron in knt gene, E. coli kanamycin selection, DiMSum; sequences stand for … in CUCUCU…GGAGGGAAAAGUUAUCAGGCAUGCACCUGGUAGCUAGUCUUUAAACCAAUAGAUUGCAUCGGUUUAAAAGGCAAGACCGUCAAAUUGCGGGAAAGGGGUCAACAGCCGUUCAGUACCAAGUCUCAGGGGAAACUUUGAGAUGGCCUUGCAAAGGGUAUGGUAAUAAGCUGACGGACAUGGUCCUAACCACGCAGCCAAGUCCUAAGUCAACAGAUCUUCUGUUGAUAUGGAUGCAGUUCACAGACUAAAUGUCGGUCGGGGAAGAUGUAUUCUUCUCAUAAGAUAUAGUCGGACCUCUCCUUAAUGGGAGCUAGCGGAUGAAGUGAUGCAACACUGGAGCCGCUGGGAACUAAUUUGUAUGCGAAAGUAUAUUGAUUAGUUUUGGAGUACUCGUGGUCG
Conditions: 37 °C
endpoint-label: self-splicing fitness (ln)

AGCUAGCAAUAUUACGCGCC | -2.04
UGGCAGCAAUAUUACGUCGU | -1.22
UUGAAGCAAUAUUACGCGGU | -2.3
CCCCAGCAAUAUUACGGGAA | -1.64
GUGCAGCAAUAUUACGGUCC | 0.0655
GACUAGCAAUAUUACGCUCG | -0.0622
CCCAAGCAAUAUUACGGUUU | -2.92
GCCAAGCAAUAUUACGCCGC | -1.02
